# assayedTarget: FGFR2 (Homo sapiens, UniProt P21802)
# Sequence (P21802 399-821 limits assumed): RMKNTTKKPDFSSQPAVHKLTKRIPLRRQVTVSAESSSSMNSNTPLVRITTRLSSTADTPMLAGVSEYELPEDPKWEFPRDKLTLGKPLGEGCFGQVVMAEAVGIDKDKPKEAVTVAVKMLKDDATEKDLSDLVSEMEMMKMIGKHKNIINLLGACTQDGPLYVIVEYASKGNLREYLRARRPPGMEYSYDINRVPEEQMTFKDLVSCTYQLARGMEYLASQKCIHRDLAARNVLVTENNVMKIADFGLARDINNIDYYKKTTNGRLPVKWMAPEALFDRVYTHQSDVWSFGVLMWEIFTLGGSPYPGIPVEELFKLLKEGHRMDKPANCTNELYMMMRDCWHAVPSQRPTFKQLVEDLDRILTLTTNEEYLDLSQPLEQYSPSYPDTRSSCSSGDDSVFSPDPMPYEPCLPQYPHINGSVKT
# testDetails: FGFR wild type enzyme assay (HTRF KinEASE-TK), FGFR2
# conditions: Enz FGFR2 (nM), FGFR2 wild type enzyme assay
Could you mark each record YES if its IC50 falls strictly under 1 nM, and NO if it equals or exceeds it?

smilesStr	classification
CC(=O)N1CCC(n2ncc(-c3cc(Sc4nc(C)c(F)cc4F)c4c(C#N)cnn4c3)c2C)CC1	NO
CC(=O)N1CCN(c2ncc(-c3cc(Sc4ccccc4C#N)c4c(C#N)cnn4c3)o2)CC1	NO
Cc1c(-c2cc(Sc3ccc(F)cc3C#N)c3c(C#N)cnn3c2)cnn1C1CCN(C[C@H](C)O)CC1	NO
CC(=O)N[C@H]1CC[C@@H](n2cc(-c3cc(Sc4ccccc4C#N)c4c(C#N)cnn4c3)c(C)n2)CC1	NO
C[C@]1(O)CC[C@@H](n2cc(-c3cc(Sc4ccccc4C#N)c4c(C#N)cnn4c3)cn2)CC1	YES
C[C@]1(O)CC[C@H](n2cc(-c3cc(Sc4ccccc4C#N)c4c(C#N)cnn4c3)cn2)CC1	YES
N#Cc1ccccc1Sc1cc(-c2cn([C@H]3CCNC3)nn2)cn2ncc(C#N)c12	NO
CC(C)n1cc(-c2cc(Sc3ccccc3C#N)c3c(C#N)cnn3c2)cn1	YES
N#Cc1ccccc1Sc1cc(-c2cnn(C3CCN(C(=O)CO)CC3)c2)cn2ncc(C#N)c12	YES
C[C@@H](O)C(=O)N1CCC(n2cc(-c3cc(Sc4ccccc4C#N)c4c(C#N)cnn4c3)cn2)CC1	YES

###

# assayedTarget: FGFR2 (Homo sapiens, UniProt P21802)
# testDetails: FGFR wild type enzyme assay (HTRF KinEASE-TK), FGFR2
# conditions: Enz FGFR2 (nM), FGFR2 wild type enzyme

compound	readoutUnit	IC50
CN[C@]1(C)CC[C@H](n2ncc(-c3cc(Sc4ccc(F)cn4)c4c(C#N)cnn4c3)c2C)CC1	nM	3
Cc1c(-c2cc(Sc3ncccc3F)c3c(C#N)cnn3c2)cnn1[C@H]1CC[C@H](N)CC1	nM	1
CC(=O)N[C@H]1CC[C@@H](n2cc(-c3cc(Sc4ccccn4)c4c(C#N)cnn4c3)cn2)CC1	nM	2
Cc1c(-c2cc(Sc3ccc(F)cc3C#N)c3c(C#N)cnn3c2)cnn1[C@H]1CC[C@@](C)(N(C)C)CC1	nM	0.5
Cc1c(-c2cc(Sc3ccccc3C#N)c3c(C#N)cnn3c2)cnn1[C@H]1CC[C@H](N(C)CCO)CC1	nM	0.4
Cc1nn(C2CCN(C)CC2)c(C)c1-c1cc(Sc2ccccc2C#N)c2c(C#N)cnn2c1	nM	5
Cc1c(-c2cc(Sc3c(F)cc(F)cc3C#N)c3c(C#N)cnn3c2)cnn1C1CCN(C)CC1	nM	2
Cc1c(-c2cc(Sc3ccc(F)cc3C#N)c3c(C#N)cnn3c2)cnn1[C@H]1C[C@H]2CC[C@@H](C1)N2C	nM	1
Cc1c(-c2cc(Sc3ncccc3F)c3c(C#N)cnn3c2)cnn1C1CCN(C(=O)[C@@H](C)O)CC1	nM	2
Cc1c(-c2cc(Sc3ncccc3F)c3c(C#N)cnn3c2)cnn1[C@@H](C)CN(C)C	nM	3
COCC(C)N1CCC(n2ncc(-c3cc(Sc4ncccc4F)c4c(C#N)cnn4c3)c2C)CC1 (stereo not drawn)	nM	2
CO[C@@H](C)CN1CCC(n2ncc(-c3cc(Sc4ncccc4F)c4c(C#N)cnn4c3)c2C)CC1	nM	2
Cc1c(-c2cc(Sc3ccc(F)cc3C#N)c3c(C#N)cnn3c2)cnn1[C@H]1CC[C@@](C)(O)CC1	nM	1
Cc1c(-c2cc(Sc3ncccc3F)c3c(C#N)cnn3c2)cnn1C[C@@H]1CNCCO1	nM	6
Cc1c(-c2cc(Sc3ncccc3F)c3c(C#N)cnn3c2)cnn1[C@H]1CC[C@@H](NC(=O)C(C)(C)O)CC1	nM	1
